- Tested on: barnyardgrass (Echinochloa crus-galli)
- Assay Remarks: Test A preemergence, visual plant response rating
- Format: in vivo
- Measurement Conditions: 500 g ai/ha Preemergence; approx. 10 days
- Excerpt: […]
// boundary case: Barnyardgrass plant response rating (0 to 100 scale) equal to 70 maps to f; strictly smaller maps to t

## Input Regarding Cc1nn(C)c(=O)c(C(=NOCC=CCl)c2ccc(F)c3ccccc23)c1O , kindly confirm whether its Barnyardgrass plant response rating (0 to 100 scale) is beneath 70.
## Output f

====

Listing: Ryegrass, Italian plant response rating (0 to 100 scale) of selected compounds
- Tested on: Italian ryegrass (Lolium mutiflorum)
- Assay Remarks: Test C preemergence, visual plant response rating
- Type: in vivo
- Measurement Conditions: Test C, 31 g ai/ha, 0 is no effect, 100 is complete control
# output: bare number, no unit

Consider the following illustrative entries.
| Structure Smiles String | Target Entity | Data Value |
| --- | --- | --- |
| C#CCO/N=C(\c1ccc(Cl)c(Cl)c1)c1c(O)c(C)nn(C)c1=O | Italian ryegrass (Lolium mutiflorum) | 10 |
| CO/N=C(\c1c(O)c(C)nn(C)c1=O)c1cccc2cc(Cl)ccc12 | Italian ryegrass (Lolium mutiflorum) | 10 |

So, C#CCO/N=C(\c1cccc(/C=C/Cl)c1)c1c(O)c(C)nn(C)c1=O ? Its Ryegrass, Italian plant response rating (0 to 100 scale) was 20

Data provenance: patent US20210045385A1
